FYI, the data here is from patent US12297190B2.

molecular target: R232-STING (Homo sapiens, UniProt Q86WV6, H232R); test: biochemical
Sequence (Q86WV6 155-341 H232R): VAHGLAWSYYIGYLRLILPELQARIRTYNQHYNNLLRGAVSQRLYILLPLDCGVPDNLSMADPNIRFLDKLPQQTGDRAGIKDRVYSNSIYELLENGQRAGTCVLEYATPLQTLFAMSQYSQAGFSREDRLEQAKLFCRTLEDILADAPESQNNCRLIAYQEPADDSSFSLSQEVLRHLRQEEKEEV
pKi: −log10 of the molar value.
endpoint name: pKi

Look over these answered cases.
Supply measured pKi of `CCn1ccc2c(-c3nc(-c4cc(C)nn4CCC(=O)O)n[nH]3)nc(C(N)=O)cc21` in your reply.
6.27

Supply measured pKi of CCn1nc(C)cc1-c1nnc(-c2cc(C(N)=O)cc3c2cnn3CC2CC3CNCC3C2)[nH]1 (stereo not drawn) in your reply.
< 6.00

Supply measured pKi of CCn1nc(C)cc1-c1n[nH]c(-c2cc(C(N)=O)cc3c2cnn3CCN2CCO[C@@H](CO)C2)n1 (racemic) [ZZZ092] in your reply.
6.01

# batch size: 5; output pKi per entry
1. CCn1nc(C)c(F)c1-c1nc(-c2nc(C(N)=O)cc3c2cnn3CCN2C[C@@H](C)O[C@@H](C)C2)n(C)n1
2. CCn1nc(C)cc1-c1nnc(-c2cc(C(N)=O)cc3c2cnn3CC2CC3(CCNC3)C2)[nH]1 (stereo not drawn)
3. CCn1nc(C)cc1-c1nnc(-c2cc(C(N)=O)cc3c2cnn3CCN2CCC2)[nH]1
4. CCn1nc(C)c(F)c1-c1nnc(-c2cc(C(N)=O)cn3c(CN)ncc23)[nH]1
5. Cc1nn(CCCO)c(-c2n[nH]c(-c3nc(C(N)=O)cc4c3cnn4C)n2)c1O

1: < 6.00; 2: < 6.00; 3: < 6.00; 4: < 6.00; 5: 9.40

# batch size: 4; output pKi per entry
1. CCN(CCC#N)CCn1ncc2c(-c3nc(-c4cc(C)nn4CC)n[nH]3)cc(C(N)=O)cc21
2. CCn1nc(C)cc1-c1n[nH]c(-c2cc(C(N)=O)cc3c2cnn3CCN2CCO[C@@H](CO)C2)n1 [ZZZ115]
3. CCn1nc(C)cc1-c1nnc(-c2cc(C(N)=O)cc3c2cnn3Cc2noc3c2CNCC3)[nH]1
4. CCn1nc(C)cc1-c1nnc(-c2cc(C(N)=O)cc3c2cnn3[C@H](C)CCCN(C)C)[nH]1 (racemic)

1: 6.09; 2: 6.07; 3: < 6.00; 4: < 6.00

# batch size: 4; output pKi per entry
1. CCn1nc(C)cc1-c1nnc(-c2cc(C(N)=O)cc3c2nnn3C)[nH]1
2. CCn1nc(C)cc1-c1nnc(-c2cc(C(N)=O)cc3nn(CCN(C)C)cc23)[nH]1
3. CCc1cc(-c2n[nH]c(-c3cc(C(N)=O)cc4c3cnn4C)n2)n(CC)n1
4. CCn1nc(C)cc1-c1nnc(-c2cc(C(N)=O)cc3c2cnn3CCOCCN(C)C)[nH]1

< 6.00
< 6.00
< 6.00
< 6.00

# batch size: 4; output pKi per entry
1. CCn1nc(C)cc1-c1n[nH]c(-c2cc(C(N)=O)cc3c2cnn3CCN2CC[C@@H](O)C2)n1
2. Cc1cc(-c2n[nH]c(-c3nc(C(N)=O)cc4c3cnn4C)n2)n(CCCN)n1
3. CCn1nc(C)cc1-c1nnc(-c2cc(C(N)=O)cc3c2cnn3CCN2CC(C)C2)[nH]1
4. CCn1nc(CO)cc1-c1nnc(-c2cc(C(N)=O)cc3c2cnn3C)[nH]1

1. < 6.00
2. < 6.00
3. < 6.00
4. < 6.00

Supply measured pKi of `CCn1nc(C)cc1-c1n[nH]c(-c2cc(C(N)=O)cc3c2cnn3CCN2C3COCC2C3)n1` in your reply.
< 6.00

* * *

molecular target: STING (Homo sapiens, UniProt Q86WV6, G230A/H232R/R293Q/R71H); construct: host or cells: THP-1 and THP-1 Lucia ISG cells; experiment: Phosphorylation of IRF3: THP-1 cell ELISA; assay type: cell-based; details: THP-1 cells, 3 hours incubation, phospho-IRF3 ELISA; read-out: THP-1 CELL P-IRF3 EC50
Sequence (Q86WV6 whole entry R71H/G230A/H232R/R293Q): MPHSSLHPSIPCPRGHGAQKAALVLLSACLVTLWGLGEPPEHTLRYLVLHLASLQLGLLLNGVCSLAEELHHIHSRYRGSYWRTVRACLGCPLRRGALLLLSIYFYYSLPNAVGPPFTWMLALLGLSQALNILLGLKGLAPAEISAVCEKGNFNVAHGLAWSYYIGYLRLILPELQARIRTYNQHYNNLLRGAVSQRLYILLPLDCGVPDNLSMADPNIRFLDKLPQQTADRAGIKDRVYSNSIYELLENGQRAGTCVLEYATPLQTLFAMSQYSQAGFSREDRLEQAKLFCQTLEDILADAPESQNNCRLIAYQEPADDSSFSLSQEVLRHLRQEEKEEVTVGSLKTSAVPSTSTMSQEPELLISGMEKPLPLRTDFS
Exercise: for every item that follows, state its recorded EC50.

# batch size: 3; output EC50 per entry
1. CCn1nc(C)cc1-c1nc(-c2nc(C(N)=O)cc3c2cnn3C)n(CC(=O)O)n1 [YY29]
2. CCn1nc(C)cc1-c1n[nH]c(-c2cc(C(N)=O)cc3c2cnn3CCN2CCS(=O)(=O)CC2)n1 [YY27]
3. CCn1nc(C)cc1-c1n[nH]c(-c2cc(C(N)=O)cc3c2cnn3CCN2CCOC3(CCCC3)C2)n1 [YY28]

> 33.3 µM
> 33.3 µM
> 33.3 µM

* * *

Biological target: STING (Homo sapiens, UniProt Q86WV6, G230A/H232R/R293Q/R71H)
Construct: host or cells: THP-1 and THP-1 Lucia ISG cells
Assay: Phosphorylation of IRF3: THP-1 cell ELISA
Assay type: cell-based
Conditions: THP-1 cells, 3 hours incubation, phospho-IRF3 ELISA; read-out: THP-1 CELL P-IRF3 EC50
Protocol: Phosphorylation of IRF3: THP-1 Cell ELISA STING activation results in recruitment of TBK1 and phosphorylation of IRF3 transcription factor before induction of type I interferons. THP-1 cells (InvivoGen) were grown in RPMI media plus 2 mM L-glutamine, 10% fetal bovine serum, and 0.5% Pen-Strep. 10^4 cells were seeded in 96-well plates and incubated overnight 37° C., 5% CO2. […] The signal was measured using a Perkin-Elmer Envision microplate reader. […]
pEC50: −log10 of the molar value.
Exercise: for every item that follows, state its recorded pEC50.

Supply measured pEC50 of CCn1nc(C)cc1-c1n[nH]c(-c2cc(C(N)=O)cc3nn(C)cc23)n1 [Example C01] in your reply.
≤ 4.00

# batch size: 4; output pEC50 per entry
1. CCn1nc(C)cc1-c1nnc(-c2cc(C(N)=O)cc3c2cnn3CCC(=O)O)[nH]1 [YY03]
2. CCn1nc(C)cc1-c1n[nH]c(-c2cc(C(N)=O)cc3c2cnn3CCCC(=O)O)n1 [YY02]
3. CCn1nc(C)cc1-c1nnc(-c2cc(C(N)=O)cc3c2cnn3CCN2CCC(C#N)CC2)[nH]1 [YY09]
4. CCn1nc(C)cc1-c1n[nH]c(-c2cc(C(N)=O)cc3c2cnn3CCN2CC3CCC2CO3)n1 (centres unmarked) [YY25]

1: < 4.00; 2: < 4.00; 3: < 4.00; 4: < 4.48

* * *

biological target: STING (Homo sapiens, UniProt Q86WV6, G230A/H232R/R293Q/R71H); construct: host or cells: THP-1 and THP-1 Lucia ISG cells; experiment: Phosphorylation of IRF3: THP-1 cell ELISA; format: cell-based; conditions: THP-1 cells, 3 hours incubation, phospho-IRF3 ELISA; read-out: THP-1 CELL P-IRF3 EC50
Exercise: for every item that follows, state its recorded EC50.

Look over these answered cases.
Supply measured EC50 of `Cc1cc(-c2n[nH]c(-c3cc(C(N)=O)cc4c3cnn4C(F)F)n2)n(CCC(=O)O)n1` in your reply.
> 100 µM

Supply measured EC50 of `CCn1nc(C)cc1-c1nnc(-c2cc(C(N)=O)cc3c2cnn3Cc2nc3c(o2)CNC3)[nH]1` in your reply.
> 100 µM

# batch size: 4; output EC50 per entry
1. CCn1nc(CO)cc1-c1n[nH]c(-c2nc(C(N)=O)cc3c2cnn3C)n1
2. Cc1cc(-c2n[nH]c(-c3c(F)c(C(N)=O)cc4c3cnn4C)n2)n(CCC(=O)O)n1
3. Cc1nn(CCC(=O)O)c(-c2n[nH]c(-c3nc(C(N)=O)cc4c3cnn4C)n2)c1O
4. CCn1nc(C)cc1-c1nnc(-c2cc(C(N)=O)cc3c2cnn3CC2(C)CC(OC)CN2C)[nH]1 (stereo not drawn)

1: > 13.3 µM; 2: > 100 µM; 3: > 11.1 µM; 4: > 100 µM

* * *

molecular target: R232-STING (Homo sapiens, UniProt Q86WV6, H232R); test: biochemical
endpoint name: pKi
One number for each entry, as −log10 of the molar value.

Name the value of pKi reported for `CCn1nc(C)cc1-c1n[nH]c(-c2cc(C(N)=O)cc3c2cnn3CCN2CCS(=O)(=O)CC2)n1` when tested on R232-STING (Homo sapiens, UniProt Q86WV6, H232R).
6.31

Name the value of pKi reported for `CCn1nc(C)c(F)c1-c1nc(-c2nc(C(N)=O)cc3c2cnn3CC(CO)CO)n(C)n1` when tested on R232-STING (Homo sapiens, UniProt Q86WV6, H232R).
7.57

Could you now look at the following molecule, please?
Name the value of pKi reported for `CCn1nc(C)cc1-c1n[nH]c(-c2cc(C(N)=O)cc3c2cnn3CCN(C)C2CCC2)n1` when tested on R232-STING (Homo sapiens, UniProt Q86WV6, H232R).
6.07

* * *

Exercise: for every item that follows, state its recorded Ki.
biological target: R232-STING (Homo sapiens, UniProt Q86WV6, H232R); assay: biochemical

# batch size: 8; output Ki per entry
1. CCn1nc(C)c(I)c1-c1nnc(-c2cc(C(N)=O)cc3c2cnn3C)[nH]1 [ZZZ053]
2. CCn1nc(CN)cc1-c1nc(-c2nc(C(N)=O)cc3c2cnn3C)n(C)n1 [ZZZ121]
3. CCn1nc(C)cc1-c1n[nH]c(-c2cc(C(N)=O)cc3c2cnn3CCN2CCNC(=O)C2)n1 [YY26]
4. CCn1nc(C)cc1-c1nnc(-c2cc(C(N)=O)cc3c2cnn3C[C@@H](C)N(C)C)[nH]1 [ZZZ015]
5. CCn1nc(C)cc1-c1nc(-c2nc(C(N)=O)cc3c2cnn3C)c(C(C)N)s1 (single isomer, unassigned) [Example W02]
6. CCn1nc(C)cc1-c1nnc(-c2cc(C(N)=O)cc3c2cnn3CC(C)(C)CN(C)C)[nH]1 [ZZZ013]
7. CCn1nc(C)cc1-c1nnc(-c2cc(C(N)=O)cc3c2cnn3CC2CC3(CNC3)C2)[nH]1 [ZZZ080]
8. CCn1nc(C)cc1-c1n[nH]c(-c2cc(C(N)=O)cc3c2cnn3CC)n1 [Example B01]

["> 0.99 µM", "> 0.99 µM", "0.195 µM", "> 0.99 µM", "0.0675 µM", "> 0.99 µM", "> 0.99 µM", "0.43 µM"]
